Listed here: items and their measured viability, T/C.
System: 898857-211-R-J1-PDC complex spheroids, growth % test/control
Assay: Anticancer human tumor 898857-211-R-J1-PDC patient-derived melanoma cell line growth inhibition [RAS]
Details: second compound 1 µM; first compound 0.0949 µM; stronger effect = lower value
# value in %; strip the unit string

Worked examples, 3 molecules total:
CC1(C)CCC(Nc2ncc(C(F)(F)F)c(-c3c[nH]c4c(P(C)(C)=O)c(C#N)ccc34)n2)CN1 (centres undefined) + C=CC(=O)N1CCN(c2nc(OCC3CCCN3C)nc3c(F)c(-c4nc(N)cc(C)c4C(F)(F)F)c(Cl)cc23)C(C)C1	15
CCc1c2c(nc3ccc(O)cc13)-c1cc3c(c(=O)n1C2)COC(=O)[C@]3(O)CC + C#Cc1c(F)ccc2cc(O)cc(-c3ncc4c(N5CC6CCC(C5)N6)nc(OCC56CCCN5CC(F)C6)nc4c3F)c12	8.52
CC1(C)CCC(Nc2ncc(C(F)(F)F)c(-c3c[nH]c4c(P(C)(C)=O)c(C#N)ccc34)n2)CN1 (centres undefined) + C#Cc1c(F)ccc2cc(O)cc(-c3ncc4c(N5CC6CCC(C5)N6)nc(OCC56CCCN5CC(F)C6)nc4c3F)c12	20.6

Now consider a different molecule.
Noted for CCc1c2c(nc3ccc(O)cc13)-c1cc3c(c(=O)n1C2)COC(=O)[C@]3(O)CC + C=CC(=O)N1CCN(c2nc(OCC3CCCN3C)nc3c(F)c(-c4nc(N)cc(C)c4C(F)(F)F)c(Cl)cc23)C(C)C1 : its viability, T/C reads 8.78

====

Tested on: 898857-211-R-J1-PDC complex spheroids, growth % test/control
Assay: Anticancer human tumor 898857-211-R-J1-PDC cell line growth inhibition [RAS];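 note: spheroids exposed to compound for seven days before readout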
Settings: curve of first compound; second compound 0.00949 µM
PROPERTY_MEASURED: IC50 (nM)
# value in nM; strip the unit string

Noted for CCN1CCN(Cc2ccc(Nc3ncc(F)c(-c4cc(F)c5nc(C)n(C(C)C)c5c4)n3)nc2)CC1 + CCn1c(-c2cc(N3CCN(C)CC3)cnc2C(C)OC)c2c3cc(ccc31)-c1csc(n1)CC(NC(=O)C1CC1C)C(=O)N1CCCC(N1)C(=O)OCC(C)(C)C2 : its IC50 reads 261

====

Tested on: 898857-211-R-J1-PDC complex spheroids, growth % test/control
Assay: Anticancer human tumor 898857-211-R-J1-PDC cell line growth inhibition [RAS]; active = viability on the fitted dose curve at most 10% of control; inactive = the rest;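 note: spheroids exposed to compound for seven days before readout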
Conditions: second compound 0.000949 µM; first compound 1 µM
Outcome (select one): active, inactive

Consider the following illustrative entries.
CC1(O)CCCC1n1c(=O)c(C(F)F)cc2cnc(NC3CCN(S(C)(=O)=O)CC3)nc21 (centres undefined) + CCn1c(-c2cc(N3CCN(C)CC3)cnc2C(C)OC)c2c3cc(ccc31)-c1csc(n1)CC(NC(=O)C1CC1C)C(=O)N1CCCC(N1)C(=O)OCC(C)(C)C2	inactive
CC(=O)OC12COC1CC(O)C1(C)C(=O)C(O)C3=C(C)C(OC(=O)C(O)C(NC(=O)OC(C)(C)C)c4ccccc4)CC(O)(C(OC(=O)c4ccccc4)C21)C3(C)C (centres undefined) + CCn1c(-c2cc(N3CCN(C)CC3)cnc2C(C)OC)c2c3cc(ccc31)-c1csc(n1)CC(NC(=O)C1CC1C)C(=O)N1CCCC(N1)C(=O)OCC(C)(C)C2	inactive
CC(Nc1ccc2c(c1)OCCn1cc(N3C(=O)OCC3C(F)F)nc1-2)C(N)=O (centres undefined) + CCn1c(-c2cc(N3CCN(C)CC3)cnc2C(C)OC)c2c3cc(ccc31)-c1csc(n1)CC(NC(=O)C1CC1C)C(=O)N1CCCC(N1)C(=O)OCC(C)(C)C2	inactive
C[C@@H](NC(=O)c1ncnc(N)c1Cl)c1ncc(C(=O)Nc2cc(C(F)(F)F)c(Cl)cn2)s1 + CCn1c(-c2cccnc2C(C)OC)c2c3cc(ccc31)N1CCOC(CC(NC(=O)C(C(C)C)N(C)C(=O)C3(F)CCN(C(=O)C#CC(C)(C)N(C)C)CC3)C(=O)N3CCCC(N3)C(=O)OCC(C)(C)C2)C1	inactive
Nc1ccn(C2OC(CO)C(O)C2(F)F)c(=O)n1 (centres undefined) + CCn1c(-c2cccnc2C(C)OC)c2c3cc(ccc31)N1CCOC(CC(NC(=O)C(C(C)C)N(C)C(=O)C3(F)CCN(C(=O)C#CC(C)(C)N(C)C)CC3)C(=O)N3CCCC(N3)C(=O)OCC(C)(C)C2)C1	active

Which outcome did this test record for the compound CCC(CC)c1cc(NC2CCC(N)C2)n2nccc2n1 (centres undefined) + CCn1c(-c2cc(N3CCN(C)CC3)cnc2C(C)OC)c2c3cc(ccc31)-c1csc(n1)CC(NC(=O)C1CC1C)C(=O)N1CCCC(N1)C(=O)OCC(C)(C)C2 ?
inactive

Which outcome did this test record for the compound CCC(CC)c1cc(NC2CCC(N)C2)n2nccc2n1 (centres undefined) + CCn1c(-c2cccnc2C(C)OC)c2c3cc(ccc31)N1CCOC(CC(NC(=O)C(C(C)C)N(C)C(=O)C3(F)CCN(C(=O)C#CC(C)(C)N(C)C)CC3)C(=O)N3CCCC(N3)C(=O)OCC(C)(C)C2)C1 ?
inactive

Which outcome did this test record for the compound CC(=O)OC12COC1CC(O)C1(C)C(=O)C(O)C3=C(C)C(OC(=O)C(O)C(NC(=O)OC(C)(C)C)c4ccccc4)CC(O)(C(OC(=O)c4ccccc4)C21)C3(C)C (centres undefined) + CCn1c(-c2cccnc2C(C)OC)c2c3cc(ccc31)N1CCOC(CC(NC(=O)C(C(C)C)N(C)C(=O)C3(F)CCN(C(=O)C#CC(C)(C)N(C)C)CC3)C(=O)N3CCCC(N3)C(=O)OCC(C)(C)C2)C1 ?
inactive

Which outcome did this test record for the compound Nc1ccn(C2OC(CO)C(O)C2(F)F)c(=O)n1 (centres undefined) + CCn1c(-c2cc(N3CCN(C)CC3)cnc2C(C)OC)c2c3cc(ccc31)-c1csc(n1)CC(NC(=O)C1CC1C)C(=O)N1CCCC(N1)C(=O)OCC(C)(C)C2 ?
active

====

System: 898857-211-R-J1-PDC complex spheroids, growth % test/control
Test: Anticancer human tumor 898857-211-R-J1-PDC cell line growth inhibition [RAS];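 note: spheroids exposed to compound for seven days before readout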;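 for viability, T/C: 100% = DMSO vehicle control wells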
Settings: second compound 0.3 µM; first compound 0.0316 µM; stronger effect = lower value
PROPERTY_MEASURED: viability, T/C

CCC(CC)c1cc(NC2CCC(N)C2)n2nccc2n1 (centres undefined) + CCn1c(-c2cccnc2C(C)OC)c2c3cc(ccc31)N1CCOC(CC(NC(=O)C(C(C)C)N(C)C(=O)C3(F)CCN(C(=O)C#CC(C)(C)N(C)C)CC3)C(=O)N3CCCC(N3)C(=O)OCC(C)(C)C2)C1	83.5%
C=CC(=O)Nc1cc(Nc2nccc(-c3cn(C)c4ccccc34)n2)c(OC)cc1N(C)CCN(C)C + CCn1c(-c2cccnc2C(C)OC)c2c3cc(ccc31)N1CCOC(CC(NC(=O)C(C(C)C)N(C)C(=O)C3(F)CCN(C(=O)C#CC(C)(C)N(C)C)CC3)C(=O)N3CCCC(N3)C(=O)OCC(C)(C)C2)C1	77.7%
O=C(c1ccc(F)c(F)c1Nc1ccc(I)cc1F)N1CC(O)([C@@H]2CCCCN2)C1 + CCn1c(-c2cccnc2C(C)OC)c2c3cc(ccc31)N1CCOC(CC(NC(=O)C(C(C)C)N(C)C(=O)C3(F)CCN(C(=O)C#CC(C)(C)N(C)C)CC3)C(=O)N3CCCC(N3)C(=O)OCC(C)(C)C2)C1	20.9%

Now consider a different compound.
Noted for CC1(O)CCCC1n1c(=O)c(C(F)F)cc2cnc(NC3CCN(S(C)(=O)=O)CC3)nc21 (centres undefined) + CCn1c(-c2cc(N3CCN(C)CC3)cnc2C(C)OC)c2c3cc(ccc31)-c1csc(n1)CC(NC(=O)C1CC1C)C(=O)N1CCCC(N1)C(=O)OCC(C)(C)C2 : its viability, T/C reads 107%

====

Listed here: items and their measured viability, T/C.
System: 898857-211-R-J1-PDC complex spheroids, growth % test/control
Experiment: Anticancer human tumor 898857-211-R-J1-PDC cell line growth inhibition [RAS];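 note: spheroids exposed to compound for seven days before readout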;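 for viability, T/C: 100% = DMSO vehicle control wells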
Details: second compound 0.0316 µM; first compound 0.03 µM; stronger effect = lower value
# value in %; strip the unit string

Worked examples, 3 compounds total:
CC1(C)CCC(Nc2ncc(C(F)(F)F)c(-c3c[nH]c4c(P(C)(C)=O)c(C#N)ccc34)n2)CN1 (centres undefined) + C=CC(=O)N1CCN(c2nc(OCC3CCCN3C)nc3c(F)c(-c4nc(N)cc(C)c4C(F)(F)F)c(Cl)cc23)C(C)C1	22
CCc1c2c(nc3ccc(O)cc13)-c1cc3c(c(=O)n1C2)COC(=O)[C@]3(O)CC + C#Cc1c(F)ccc2cc(O)cc(-c3ncc4c(N5CC6CCC(C5)N6)nc(OCC56CCCN5CC(F)C6)nc4c3F)c12	11.4
CC1(C)CCC(Nc2ncc(C(F)(F)F)c(-c3c[nH]c4c(P(C)(C)=O)c(C#N)ccc34)n2)CN1 (centres undefined) + C#Cc1c(F)ccc2cc(O)cc(-c3ncc4c(N5CC6CCC(C5)N6)nc(OCC56CCCN5CC(F)C6)nc4c3F)c12	22

Now consider a different compound.
Noted for CCc1c2c(nc3ccc(O)cc13)-c1cc3c(c(=O)n1C2)COC(=O)[C@]3(O)CC + C=CC(=O)N1CCN(c2nc(OCC3CCCN3C)nc3c(F)c(-c4nc(N)cc(C)c4C(F)(F)F)c(Cl)cc23)C(C)C1 : its viability, T/C reads 8.88
